Sourced from the supplement of paper PMC9170038

tested on: K4 kissing-loop RNA reporter; test: apparent KD of K4 kissing-loop reporter; higher = weaker reporter binding; details: Eterna round: R107; input ligand: theophylline 20 uM;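 also: bound reporter read as fluorescence of individual clusters on recovered sequencing chips by microscopy, with normalized cluster intensities fitted with a binding model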

BIOSEQUENCE	SUBJECT_OF_TEST	READING_UNIT	apparent KD of K4 kissing-loop reporter
AAUUUCGGAUACAUCAUAGUUUUAAUUCGGCGAGGACCGGUACGGCCGCCACUCGGUAUAGACGCGUCCAGUGAUGUUGGCGCUU [theeternabot_sameState_KL_Trp_A_45]	K4 kissing-loop RNA reporter	µM	0.26
UGAUAGGACAGAAGGAGCGGAAGCUAGUCAAAGACUAGCAAACGUUAAACAGGAGUGAUGUUCCAGGUAGGUCGCUGUCCUAUCU [ArgBX 23 #SwitchBubble #StaticStem]	K4 kissing-loop RNA reporter	µM	0.133
GGGAGUAGUGCGGCCGCCACUGAGAAAGAAGAAGAAUAUAGUGAUGUUAUGUAGGAAAGGAAGAACAGGACCGGGCAUUAGAUUU [SSTRyptB.G]	K4 kissing-loop RNA reporter	µM	0.387
UGGACCUGACUCGAUAAGAGUCAAUGAGAUACCAGUGACGAAAGUCACCCUUGGCAGCUCACUGCCAGUGAUGUUGGUAGGUCCU [#SwitchBubble 3 #StaticStem]	K4 kissing-loop RNA reporter	µM	0.738
GCGAUCUGCAUCGAUACCAGCCCAGUGAUGUUGGGCUGCUCUCCAUGGGUGCCAGACACGGGCCCUUGGCAGCGAGGUAGAGCCC [Maonzaa]	K4 kissing-loop RNA reporter	µM	0.113
AUGUCUGAUAGCAGUGAUGUUGCUUCGGAUACCAGACGCGAUCUUGUCCCUUGGCAGCUGACACGGCACGUGCUAGGUUAGAAGG [whbob_Ex_Theo_A_th75]	K4 kissing-loop RNA reporter	µM	0.124
UGUAUAGUCAGAAGGAGCGUGAACGAUCGAGAAUCGAUCAGCCAGUGAUGUUGGCAGGAAUCACAGGUAGGUCGCUGACUGUACA [Arg B SS t3]	K4 kissing-loop RNA reporter	µM	0.24
CCUAUCUCAUACGAUACCAGUCAACGAGUGAUGUUCGAAUAAAUAAAUUUGCCAAAUAAUGACCCUUGGCAGCGUAUGGGAUAGG [Ex Theophylline B K4 15]	K4 kissing-loop RNA reporter	µM	0.302
AAAUUUUCGAGUGAUGUUCGAAUAAUUUCAGAGGAUAUGCUUAAAAGCAGAAGGCUGUAUUACUAUUUGUUAUUAAAUUUUAUAA [JR_ExcFMNA_Sub001]	K4 kissing-loop RNA reporter	µM	0.105
UUUUGCGCGUACGAUACCAGUAUCUGUAAGAGUGAUGUUCAGCGCUGAAGACAGCAGCGAUACCCUUGGCAGCGUUACAUGCUAG [theeternabot_sameState_KL_Theo_B_22]	K4 kissing-loop RNA reporter	µM	0.475
UGUGGAGGAUAUGAUACCAGCAGUGAGAGAGAGGAAGUAUAGUGAUGUUAUAUGAGAGAAUGCCCUUGGCAGCGUAUGUAGUAGG [SSTheophylB.I]	K4 kissing-loop RNA reporter	µM	0.208
GAAUUAUGUAGAAGGAGCGUUAGAAGGUAUAGGUGUGAGUGAUGUUCGGAUUUGUUAAUUUGACAGGUAGGUCGCUACAGAAGGA [KL-SSArg B17 #analogue]	K4 kissing-loop RNA reporter	µM	0.132
